Where these numbers come from: ChEMBL document CHEMBL4118098

IC50 for assorted compounds
# System: HepG2
# protocol.summary: Inhibition of human recombinant BMP6-stimulated hepcidin mRNA expression in human HepG2 cells after 6 hrs by qRT-PCR analysis
# Type: functional, cell-based
# setup.conditions: HepG2, 6 h

INSERT INTO results (chemical_string, observation_type, readout_value) VALUES
  ('CCOC(=O)Nc1cc(-c2c(C3CC3)n[nH]c2C)cc2[nH]ncc12', 'IC50', '660 nM'),
  ('Cc1[nH]nc(C2CC2)c1-c1ccc2c(-c3cccnc3)n[nH]c2c1', 'IC50', '2300 nM'),
  ('COC(=O)N(C)c1cc(-c2c(C3CC3)n[nH]c2C)cc2[nH]ncc12', 'IC50', '3000 nM'),
  ('COC(=O)Nc1cc(-c2c(C)n[nH]c2C)cc2[nH]ncc12', 'IC50', '150 nM'),
  ('CC(=O)Nc1cc(-c2c(C3CC3)n[nH]c2C)cc2[nH]ncc12', 'IC50', '190 nM'),
  ('Cc1[nH]nc(C2CC2)c1-c1cc(NC(=O)C2CC2)c2cn[nH]c2c1', 'IC50', '1000 nM');

Now take the following compound into account.
Query IC50 for COC(=O)Nc1cc(-c2c(-c3ccccn3)n[nH]c2C)cc2[nH]ncc12
320 nM
